Tested on: Malme-3M
Test: NCI tumour cell line growth inhibition, 48 h
The source made the active and inactive calls. No stated cut-off is given here; in the data, active = GI50 up to about 1.1 µM and inactive = higher.
observed.property: GI50

Query GI50 for CC12Cc3cc4c(cc3C1(c1ccc([N+](=O)[O-])cc1)OCCO2)OCO4 (stereo not given)
> 100 µM (inactive)

Report GI50 for O=S1(=O)[C@H](c2ccccc2)c2c(-c3ccccc3)sc(-c3ccccc3)c2[C@@H]1c1ccccc1
94.2 µM (inactive)

Please report GI50 for the following molecule: CC1=NNC(=O)C1C1CC(c2c[nH]c3ccccc23)=NN(C(N)=O)C1=O (stereo not given)
> 100 µM (inactive)

Report GI50 for COC(C(=O)NN)c1ccccc1 (stereo not given)
> 100 µM (inactive)

Note: attention shifts to another entry.
Provide one value: measured GI50 of C#CC[N+](CCO)(CCO)CCCCCCCCCCCCCCCCCC
18.4 µM (inactive)

====

Tested on: K562
Assay: NCI tumour cell line growth inhibition, 48 h
Calls of active or inactive are those of the source. Cut-off read from the data, not from the text of the source: active = GI50 up to about 1.1 µM and inactive = higher.
Could you please pick one outcome from this set? active, inactive

Solved cases (5 shown):
Name the outcome recorded for COC(=O)C1=C(C)NC(C)=C(C(=O)OC)C1c1nc2sccn2c1[N+](=O)[O-] in the assay.
inactive

Recorded test call requested for CCOC(=O)/C(C(=S)NC)=C(/N)N1CCCC1
inactive

For CC(=O)Oc1cc2oc(=O)cc(C)c2cc1OC(C)=O , which call appears in the assay record?
inactive

Record lookup: outcome of this test for C[C@H]1S[C@H](c2c(Cl)cccc2Cl)N2Cc3ccccc3N=C12 ?
inactive

In this assay, the call recorded for Nc1ccc(S(=O)(=O)Nc2ccc(Nc3c4ccccc4nc4ccccc34)cc2)cc1 was what?
active

---
Returns: the outcome recorded for O=C(Nc1ccc(Cl)cc1)c1cc([N+](=O)[O-])ccc1O in this assay.
inactive

====

GI50 by entry:
Test system: Malme-3M
Assay: NCI tumour cell line growth inhibition, 48 h
The source made the active and inactive calls. Cut-off read from the data, not from the text of the source: active = GI50 up to about 1.1 µM and inactive = higher.

See these solved cases before continuing.
Fill in GI50 for record C=C1C(=O)OC2C=C(C)CC3C=C(CCC=C(C)CCC12)C(=O)O3 (stereo not given)
46.1 µM (inactive)

Report GI50, nothing else, for this compound: CCN(CC)P1(=S)Oc2ccc3ccccc3c2-c2c(ccc3ccccc23)O1
72.8 µM (inactive)

Note GI50 for the compound shown: O=C(CCCCCCCCC(=O)N1C(=O)CC(=O)N(c2cccc(Cl)c2)C1=S)N1C(=O)CC(=O)N(c2cccc(Cl)c2)C1=S
66.1 µM (inactive)

***
Please report the measured GI50 for Cc1cccc(C)c1NC(=O)/C=C/c1ccccc1
51.2 µM (inactive)

Please list GI50 recorded for the compound Cc1nnc2n(c1=O)CCN2C
> 100 µM (inactive)

====

Test system: ACHN
Test: NCI tumour cell line growth inhibition, 48 h
Calls of active or inactive are those of the source. Rule as the data show it: active = GI50 up to about 1.1 µM and inactive = higher.
observed.property: GI50

Return GI50 for the following compound: O=C(O)c1ccc(Nc2nc3ccc(C(F)(F)F)cc3nc2C(=O)O)cc1
> 100 µM (inactive)

Give a short answer stating reported GI50 for C/C(=C\CBr)CCC(Br)C(C)(C)Cl (stereo unspecified) .
> 100 µM (inactive)

====

List of GI50 values.
System: OVCAR-8
Experiment: NCI tumour cell line growth inhibition, 48 h
Calls of active or inactive are those of the source. No stated cut-off is given here; in the data, active = GI50 up to about 1.1 µM and inactive = higher.

Indicate the recorded GI50 value for this molecule: O=C(/C=C\c1ccccc1)Oc1ccc(/C=C2\CCC/C(=C\c3ccc(OC(=O)/C=C\c4ccccc4)cc3)C2=O)cc1
> 100 µM (inactive)

Kindly indicate its recorded GI50. Item: COc1ccc2c3c([nH]c2c1[N+](=O)[O-])C(C)N(Cc1ccccc1)CC3 (centres undefined)
3.72 µM (inactive)

Give GI50 for the following molecule: Cc1ccc(C2SC(=N)Nc3c2c(C)nn3C(=O)c2ccc(Cl)cc2)cc1 (centres undefined)
> 10 µM (inactive)

Return GI50 (reported value) for this molecule: O=C(O)CCN(CCCCN(CCC(=O)O)CCC(=O)O)CCC(=O)O
> 100 µM (inactive)

In one line, give reported GI50 of the entry COc1ccc(-n2nnnc2C2(Nc3ccccc3)CCN(Cc3ccccc3)CC2)cc1 .
19 µM (inactive)

Please look at this molecule and report its GI50: CCOC(=O)C(C(=O)OCC)C(NC(=O)Nc1cc(C(F)(F)F)ccc1OC)(C(F)(F)F)C(F)(F)F
31.6 µM (inactive)

====

Tested on: OVCAR-3
Assay: NCI tumour cell line growth inhibition, 48 h
Activity calls are given as the source filed them. No stated cut-off is given here; in the data, active = GI50 up to about 1.1 µM and inactive = higher.
observed.property: GI50

Look up and state reported GI50 for O=C1C=C(N2CCCC2)C=C(N2CCCC2)C1
75.5 µM (inactive)

Read the entry FC1(F)SC2CCCCCCCCCCC2C1(F)F (stereo unspecified) and write its reported GI50.
18.5 µM (inactive)

Give the value of GI50 reported for the following: NC(CSC1(c2ccc(Cl)cc2)c2ccccc2-c2ccccc21)C(=O)O (stereo unspecified)
17.4 µM (inactive)

In one line, give reported GI50 of the entry CC(=O)Oc1c(-c2ccccc2)[nH]c2cc([N+](=O)[O-])c(/C(Cl)=C/c3ccccc3)cc12 .
7.66 µM (inactive)

In one line, give reported GI50 of the entry CC(=O)O[C@@H]1C[C@]2(C(=O)c3ccccc3)C(=O)C(=O)S[C@]12c1ccccc1 .
69.8 µM (inactive)

Annotate the molecule C/C(=C\CSCC(N)C(=O)O)CC/C=C(\C)CNc1ccccc1 (stereo unspecified) with its measured GI50.
> 100 µM (inactive)

Supply recorded GI50 for Cc1cc2c(c(/C=N/Cc3ccccc3)c1)OC1(C=C2)Oc2ccccc2C(=O)N1C (stereo unspecified) here.
37.4 µM (inactive)

Quick one: give measured GI50 for CCOC(=O)c1ccc(N[C@@H]2c3cc4c(cc3C(C3=CC(=O)C(=O)C(OC)=C3)[C@H]3C(=O)OCC32)OCO4)cc1 (stereo partly specified)
8.47 µM (inactive)

Entry O=C(c1ccc(Cl)cc1)c1ccc(OCCSCCCCCCCCCCSCCOc2ccc(C(=O)c3ccc(Cl)cc3)cc2)cc1 needs its GI50 filled in; supply it.
> 100 µM (inactive)

Output measured GI50 for this item: Nc1ncnc2c1nc(O)n2-c1ccccc1
> 100 µM (inactive)

Further cases:
Answer with reported GI50 of NC(=O)CCC(NC(=O)Cc1ccccc1)C(=O)O.NC(CCC(=O)NC(=O)Cc1ccccc1)C(=O)O (stereo unspecified)
> 8130 µM (inactive)

Give GI50 for the following molecule: O=C1Nc2ccc(Br)cc2/C1=N/N1C(=O)C(=O)N(C2CCCCC2)C1=S
2.47 µM (inactive)

Report GI50 for Cc1c(C(=O)O)n2c(S)nnc2c2ccccc12
> 100 µM (inactive)

Return GI50 (reported value) for this molecule: C=C1C(=O)OC2/C=C(CO)/C=C\C3OC3(C)CC(OC(=O)/C(C)=C/COC(C)=O)C12 (stereo unspecified)
2.46 µM (inactive)

Name the recorded GI50 of the molecule listed here: C[C@@]1(O)C2CC3CC1(c1ccccc1)CC(/C3=N/O)/C2=N\O (stereo partly specified)
> 100 µM (inactive)

Fill in reported GI50 for this entry: O=c1c2cccnc2oc2c(Cl)cc(-c3nnn[nH]3)cc12
> 100 µM (inactive)

Give the value of GI50 reported for the following: Cc1ccc(C)c2c1CCc1cc3ccccc3nc1-2
> 100 µM (inactive)

For the molecule Nc1cc2c(nnn2C2OC(COCc3ccccc3)C(OCc3ccccc3)C2OCc2ccccc2)c(=O)[nH]1 (stereo unspecified) , report GI50.
18.7 µM (inactive)

Kindly indicate its recorded GI50. Item: CN(C)CCNC(=O)C1COc2cc(-c3cc(=O)c4ccccc4o3)ccc2O1 (stereo unspecified)
20.5 µM (inactive)

Consider the molecule CC(=O)O[C@@H]1CN(S(=O)(=O)c2ccc(C)cc2)C[C@@H]1C1CCCCC1 and give its recorded GI50.
15 µM (inactive)

Return the recorded GI50 value; entry: O=c1c2ccccc2n2cnc3ccc(NCCNCCO)c1c32
2.19 µM (inactive)

State its GI50: Clc1ccc(CN2CCCN(Cc3ccc(Cl)cc3)C2c2cc3ccccc3c3ccccc23)cc1
57.9 µM (inactive)

Give reported GI50 value for Oc1ccccc1/C=N/Cc1ccco1
> 100 µM (inactive)

====

Test system: HCT-116
Experiment: NCI tumour cell line growth inhibition, 48 h
Activity calls are given as the source filed them. Cut-off read from the data, not from the text of the source: active = GI50 up to about 1.1 µM and inactive = higher.
observed.property: GI50

Reference set (5 entries):
Retrieve GI50 measured for Cc1ccc(C)c2c1CCc1cc3ccccc3nc1-2 and print it.
> 100 µM (inactive)

Look up and report measured GI50 for this entry: NC(CSC1(c2ccc(Cl)cc2)c2ccccc2-c2ccccc21)C(=O)O (stereo unspecified)
16.6 µM (inactive)

Assign GI50 to the following record: CC(C)(C)OC(=O)N(O)CCCn1cnc2c(NC3CC3)ncnc21
> 100 µM (inactive)

Specify measured GI50 for COc1cccc2[nH]c(-c3ccccn3)nc12 .
> 100 µM (inactive)

Answer with reported GI50 of O=C(/C=C/c1ccccc1Br)c1ccccc1
1.89 µM (inactive)

# ---- query molecule ----
Give reported GI50 value for O=C1CSC(=S)N1c1ccc(F)cc1F
> 100 µM (inactive)

Cited source for all entries: ChEMBL document CHEMBL1201862
